target: human OX2 receptors (Homo sapiens); construct: expressed in transfected cells; host or cells: HEK-293 cells; assay: Antagonistic activity against human OX2 receptor, [Ca2+]i fluorimetry (Fluo-4NW) in transfected HEK-293 cells activated with orexin-B; type: cell-based; details: HEK-293 cells transfected with human recombinant OX2; orexin-B 10 nM; pKb = co-logarithm of apparent dissociation constant, modified Cheng Prusoff
Sequence (O43614 whole entry): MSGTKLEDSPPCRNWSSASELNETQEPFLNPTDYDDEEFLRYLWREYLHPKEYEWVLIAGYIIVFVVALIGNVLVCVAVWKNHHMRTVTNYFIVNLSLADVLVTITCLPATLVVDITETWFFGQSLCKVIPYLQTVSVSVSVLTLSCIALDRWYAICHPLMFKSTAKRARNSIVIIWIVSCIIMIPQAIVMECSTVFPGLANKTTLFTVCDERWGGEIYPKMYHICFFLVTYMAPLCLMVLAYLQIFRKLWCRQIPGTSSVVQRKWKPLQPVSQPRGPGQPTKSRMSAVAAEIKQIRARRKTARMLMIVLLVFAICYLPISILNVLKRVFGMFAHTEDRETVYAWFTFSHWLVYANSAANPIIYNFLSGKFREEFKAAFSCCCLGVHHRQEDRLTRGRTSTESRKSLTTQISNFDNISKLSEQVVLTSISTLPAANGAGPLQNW
Provide the recorded Kb for the entries that follow.
Give bare numbers, in nM.

• Cc1ccc(-c2ncccn2)c(C(=O)N2CC3(CC3)C[C@H]2CNc2ccc(C(F)(F)F)cn2)n1 = 31.6
• O=C(c1cc(Cl)ccc1-c1ncccn1)N1CC2(CC2)C[C@H]1CNc1cc(C(F)(F)F)c(Cl)cn1 = 20
• Cc1ccc(OCc2ccc(F)cc2)c(C(=O)N2CC3(CC3)C[C@H]2CNc2ccc(C(F)(F)F)cn2)n1 = 15.8

For every item below, please supply its Kb.
1. Cc1cccc(NC[C@@H]2CC3(CC3)CN2C(=O)c2nc(C)sc2-c2ccccc2)n1
2. Cc1ccc(-n2ccc(C)n2)c(C(=O)N2CC3(CC3)C[C@H]2CNc2ccc(C(F)(F)F)cn2)n1
3. Cc1ccc(-c2ncccn2)c(C(=O)N2CC3(CC3)C[C@H]2CNc2nc3cc(Cl)ccc3o2)n1
4. O=C(c1cc(Cl)ccc1-c1ncccn1)N1CC2(CC2)C[C@H]1CNc1ncc(C(F)(F)F)cn1
5. Cc1nc(C(=O)N2CC3(CC3)C[C@H]2CNc2nc3ccc(F)cc3s2)c(-c2ccccc2)s1
6. Cc1ccc(-c2ncccn2)c(C(=O)N2CC3(CC3)C[C@H]2CNc2cc(C(F)(F)F)ccn2)c1
7. Cc1cc(C(F)(F)F)cc(NC[C@@H]2CC3(CC3)CN2C(=O)c2nc(C)sc2-c2ccccc2)n1
8. O=C(c1nc(C2CC2)ccc1-c1ccccc1)N1CC2(CC2)C[C@H]1CNc1ccc(C(F)(F)F)cn1

1: 25.1; 2: 15.8; 3: 79.4; 4: 200; 5: 6.31; 6: 15.8; 7: 2.51; 8: 12.6

For every item below, please supply its Kb.
1. Cc1nc(C(=O)N2CC3(CC3)C[C@H]2CNc2ncc(Cl)cn2)c(-c2ccccc2)s1
2. Cc1ccc(-c2ncccn2)c(C(=O)N2CC3(CC3)C[C@H]2CNc2ncc(Cl)cc2F)n1

1. 158
2. 39.8

For every item below, please supply its Kb.
1. Cc1nc(C(=O)N2CC3(CC3)C[C@H]2CNc2nc3ccc(Cl)cc3s2)c(-c2ccccc2)s1
2. Cc1ccc(-c2ncccn2)c(C(=O)N2CC3(CC3)C[C@H]2CNc2ncc(C(F)(F)F)cn2)c1
3. O=C(c1cc(Cl)ccc1-c1ncccn1)N1CC2(CC2)C[C@H]1CNc1cc(C(F)(F)F)ccn1

1. 31.6
2. 100
3. 12.6
